# target under test: melanocortin MC-4 receptor (Homo sapiens)
# Construct: purchased Receptor Biology Inc
# Sequence (P32245 whole entry): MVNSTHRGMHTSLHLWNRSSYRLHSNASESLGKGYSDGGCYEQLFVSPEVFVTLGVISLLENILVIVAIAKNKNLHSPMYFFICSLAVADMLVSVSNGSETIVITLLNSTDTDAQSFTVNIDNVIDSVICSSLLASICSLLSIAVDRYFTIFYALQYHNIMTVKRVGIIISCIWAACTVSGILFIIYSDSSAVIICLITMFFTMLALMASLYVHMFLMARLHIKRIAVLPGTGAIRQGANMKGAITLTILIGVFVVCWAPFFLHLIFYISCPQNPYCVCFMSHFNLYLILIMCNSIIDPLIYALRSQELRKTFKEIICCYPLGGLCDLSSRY
# experiment description: Melanocortin MC-4 Receptor Binding Assay (SPA)

compound: COc1ccccc1-[n+]1sc(Nc2ccc(Cl)cc2)nc1-c1ccccc1 [Compound 33]
target under test: melanocortin MC-4 receptor (Homo sapiens)
IC50, nM: 91
--
compound: COc1ccc(Nc2nc(-c3ccccc3)[n+](-c3ccc(C)cc3)s2)cc1 [Compound 1]
target under test: melanocortin MC-4 receptor (Homo sapiens)
IC50, nM: 174
--
compound: COc1ccc(-c2nc(Nc3ccccc3Cl)s[n+]2-c2ccc(OC)cc2)cc1 [Compound 63]
target under test: melanocortin MC-4 receptor (Homo sapiens)
IC50, nM: 1000
--
compound: COc1ccc(-[n+]2sc(Nc3ccccc3OC)nc2-c2ccccc2)cc1 [Compound 37]
target under test: melanocortin MC-4 receptor (Homo sapiens)
IC50, nM: 72
--
compound: COc1ccccc1Nc1nc(-c2ccccc2)[n+](-c2ccccc2Cl)s1 [Compound 44]
target under test: melanocortin MC-4 receptor (Homo sapiens)
IC50, nM: 89

====

# Tested on: human sebocytes
# experiment description: Visual observation of lipid granule formation in sebocytes
# Type: cell-based
# protocol conditions: 0.4 μM
value kind: Visual* 0.4 μM (inhibition of lipid granule formation)

structure as smiles: COc1ccc(N(C)c2nc(-c3ccccc3)[n+](-c3ccc(C)cc3)s2)cc1
target under test: human sebocytes
experimental value: 0
//
structure as smiles: COc1ccccc1-c1nc(Nc2ccccc2Cl)s[n+]1-c1ccccc1OC
target under test: human sebocytes
experimental value: ++ (++ =50%)
//
structure as smiles: c1ccc(CNc2nc(-c3ccccc3)[n+](-c3ccccc3)s2)cc1
target under test: human sebocytes
experimental value: 0
//
structure as smiles: COc1ccccc1Nc1nc(-c2ccccc2OC)[n+](-c2ccccc2OC)s1
target under test: human sebocytes
experimental value: ++ (++ =50%)
//
structure as smiles: COc1ccccc1Nc1nc(-c2ccc(C)cc2)[n+](-c2ccccc2OC)s1
target under test: human sebocytes
experimental value: ++ (++ =50%)

====

# Test system: Cortical Cells
# experiment description: Neurite Cell Outgrowth Assay, cortical cells
# Assay type: cell-based
# protocol conditions: Rattus norvegicus; 50 nM; percent change over the vehicle response; NA = no change/not active

structure as smiles: Cc1ccc(-[n+]2sc(Nc3ccccc3Cl)nc2-c2ccccc2)cc1
target under test: Cortical Cells
measurement units: %
activation at 0.05 µM: 11
//
structure as smiles: Cc1ccccc1-[n+]1sc(Nc2ccc(Cl)cc2)nc1-c1ccccc1
target under test: Cortical Cells
measurement units: %
activation at 0.05 µM: 32
//
structure as smiles: COc1ccc(-c2nc(Nc3cccnc3)s[n+]2-c2ccc(OC)cc2)cc1
target under test: Cortical Cells
measurement units: %
activation at 0.05 µM: 12
//
structure as smiles: COc1ccccc1Nc1nc(-c2ccccc2)[n+](-c2ccc(Cl)cc2)s1
target under test: Cortical Cells
measurement units: %
activation at 0.05 µM: 17
//
structure as smiles: c1ccc(CNc2nc(-c3ccccc3)[n+](-c3ccccc3)s2)cc1
target under test: Cortical Cells
measurement units: %
activation at 0.05 µM: 17

====

# target under test: melanocortin MC-4 receptor (Homo sapiens)
# Construct: purchased Receptor Biology Inc
# experiment description: Melanocortin MC-4 Receptor Binding Assay (SPA)

structure as smiles: COc1ccccc1-[n+]1sc(Nc2cccnc2)nc1-c1ccccc1
measurement units: nM
IC50: 725
//
structure as smiles: COc1ccccc1-[n+]1sc(Nc2cccnc2)nc1-c1ccc(C)cc1
measurement units: nM
IC50: 155
//
structure as smiles: Cc1ccccc1Nc1nc(-c2ccccc2)[n+](-c2ccc(Cl)cc2)s1
measurement units: nM
IC50: 460
//
structure as smiles: COc1ccc(Nc2nc(-c3ccccc3)[n+](-c3ccccc3C)s2)cc1
measurement units: nM
IC50: 217
//
structure as smiles: Clc1ccc(Nc2nc(-c3ccccc3)[n+](-c3ccc(Cl)cc3)s2)cc1
measurement units: nM
IC50: 636
//
structure as smiles: Cc1ccccc1-[n+]1sc(Nc2ccccc2Cl)nc1-c1ccccc1
measurement units: nM
IC50: 234
//
structure as smiles: Cc1ccc(Nc2nc(-c3ccccc3)[n+](-c3ccccc3)s2)cc1
measurement units: nM
IC50: 57
//
structure as smiles: COc1ccccc1CNc1nc(-c2ccccc2)[n+](-c2ccccc2)s1
measurement units: nM
IC50: 1000
//
structure as smiles: Clc1ccc(Nc2nc(-c3ccccc3)[n+](-c3ccccc3)s2)cc1
measurement units: nM
IC50: 89
